Taken from ChEMBL document CHEMBL1137734.

target: Sodium channel protein type 4 subunit alpha (Homo sapiens, UniProt P35499); assay: Inhibition of Nav1.4 ion channel assessed as reduction in cumulative sodium current
Sequence (P35499 whole entry): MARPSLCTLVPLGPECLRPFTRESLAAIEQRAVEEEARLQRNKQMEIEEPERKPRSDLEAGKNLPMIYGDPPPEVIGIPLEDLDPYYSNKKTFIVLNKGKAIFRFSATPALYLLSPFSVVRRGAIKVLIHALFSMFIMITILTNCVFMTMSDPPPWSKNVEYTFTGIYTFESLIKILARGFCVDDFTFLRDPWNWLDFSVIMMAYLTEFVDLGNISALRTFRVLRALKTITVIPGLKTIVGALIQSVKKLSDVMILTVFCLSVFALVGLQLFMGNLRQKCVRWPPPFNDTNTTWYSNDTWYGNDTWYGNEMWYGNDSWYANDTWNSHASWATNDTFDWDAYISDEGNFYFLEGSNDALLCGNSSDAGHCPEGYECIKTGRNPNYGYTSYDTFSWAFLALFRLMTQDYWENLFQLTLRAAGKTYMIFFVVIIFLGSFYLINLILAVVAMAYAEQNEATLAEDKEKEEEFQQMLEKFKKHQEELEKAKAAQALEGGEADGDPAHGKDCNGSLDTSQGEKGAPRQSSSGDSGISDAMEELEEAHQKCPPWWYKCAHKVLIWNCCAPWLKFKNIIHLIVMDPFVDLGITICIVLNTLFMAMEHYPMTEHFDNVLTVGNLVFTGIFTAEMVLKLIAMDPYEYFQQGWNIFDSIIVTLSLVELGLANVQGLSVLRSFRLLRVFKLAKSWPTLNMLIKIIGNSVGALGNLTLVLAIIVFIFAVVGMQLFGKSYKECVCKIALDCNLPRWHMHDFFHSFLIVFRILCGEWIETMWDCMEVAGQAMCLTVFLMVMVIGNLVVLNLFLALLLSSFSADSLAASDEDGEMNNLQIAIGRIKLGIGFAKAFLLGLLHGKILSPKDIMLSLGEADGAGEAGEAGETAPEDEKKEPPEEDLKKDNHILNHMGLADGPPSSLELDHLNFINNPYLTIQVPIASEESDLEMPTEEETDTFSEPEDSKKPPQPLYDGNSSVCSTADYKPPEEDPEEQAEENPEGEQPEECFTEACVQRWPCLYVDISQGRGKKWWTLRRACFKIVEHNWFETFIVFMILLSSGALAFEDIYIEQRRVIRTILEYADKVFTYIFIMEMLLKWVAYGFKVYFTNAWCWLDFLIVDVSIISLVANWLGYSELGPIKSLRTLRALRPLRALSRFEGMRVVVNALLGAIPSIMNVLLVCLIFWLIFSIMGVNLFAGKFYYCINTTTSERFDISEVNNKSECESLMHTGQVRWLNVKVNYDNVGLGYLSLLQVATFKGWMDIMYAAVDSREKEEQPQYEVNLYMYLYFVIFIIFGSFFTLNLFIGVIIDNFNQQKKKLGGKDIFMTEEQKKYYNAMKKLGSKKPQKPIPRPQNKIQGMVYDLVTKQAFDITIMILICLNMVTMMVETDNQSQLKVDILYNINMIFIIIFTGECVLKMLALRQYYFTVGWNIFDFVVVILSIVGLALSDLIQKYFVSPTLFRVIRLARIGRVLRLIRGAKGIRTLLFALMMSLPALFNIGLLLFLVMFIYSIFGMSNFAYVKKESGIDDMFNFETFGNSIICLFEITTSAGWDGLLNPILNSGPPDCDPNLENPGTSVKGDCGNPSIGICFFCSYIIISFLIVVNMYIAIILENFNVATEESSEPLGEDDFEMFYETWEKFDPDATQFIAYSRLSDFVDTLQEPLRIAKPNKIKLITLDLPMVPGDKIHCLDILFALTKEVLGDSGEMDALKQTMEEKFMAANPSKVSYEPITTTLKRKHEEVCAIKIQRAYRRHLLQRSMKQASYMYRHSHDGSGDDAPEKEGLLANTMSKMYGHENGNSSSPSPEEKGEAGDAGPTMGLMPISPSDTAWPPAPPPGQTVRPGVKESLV
measuredProperty: EC50

Use the examples below as a reference point.
chemicalStructure: Cc1cccc(C)c1NC(=O)[C@@H](C)NCc1ccccc1
measuredProperty: EC50
experimentalValue: 11.2 µM
//
chemicalStructure: Cc1cccc(C)c1NC(=O)[C@@H]1CCCN1Cc1ccccc1
measuredProperty: EC50
experimentalValue: 10 µM

Quick note, EC50 for Cc1cccc(C)c1NC(=O)[C@H](C)NCc1ccccc1 landed at 9.12 µM
